# reported No H2O2 stress treatment, at 10 uM (fold change); entries follow
system: WI-38 cells; conditions: WI-38 cells, no H2O2 stress, 10 uM, normalized ATP measurement
Hi! Could you send only the number? It should be in fold change, unit omitted.

Answered cases to consult:
O=C(Nc1cccc(C(F)(F)F)c1)c1ccc([N+](=O)[O-])o1 = 0.96
O=C(/C(=C/c1ccc(Cl)cc1)c1nc2ccccc2[nH]1)c1ccccc1 = 1.11
O=C(Nc1cccc(Cl)c1)c1ccc([N+](=O)[O-])o1 = 0.91

Task: Sample O=C(NCc1cccnc1)/C(=C/c1ccc(-c2ccc(Cl)cc2)o1)S(=O)(=O)c1ccccc1 — what was its No H2O2 stress treatment, at 10 uM (fold change)?
Output: 0.87

Task: Sample Cc1ccc(S(=O)(=O)Nc2cccc3cccnc23)cc1 — what was its No H2O2 stress treatment, at 10 uM (fold change)?
Output: 0.90
